Assay: Plasma concentration in mouse at 10 mg/kg, ip after 5 hrs
Type: ADME, organism-based
Design: dose 10 mg/kg, route intraperitoneal
Reported Metric: concentration at 5 h

Exercise: Please look up its concentration at 5 h: CCCCCCc1cccc(NC(=O)[C@H](N)CCP(=O)(O)O)c1
Key: 268 nM

----------
Target: UniProtKB P21453
Sequence (P21453 whole entry): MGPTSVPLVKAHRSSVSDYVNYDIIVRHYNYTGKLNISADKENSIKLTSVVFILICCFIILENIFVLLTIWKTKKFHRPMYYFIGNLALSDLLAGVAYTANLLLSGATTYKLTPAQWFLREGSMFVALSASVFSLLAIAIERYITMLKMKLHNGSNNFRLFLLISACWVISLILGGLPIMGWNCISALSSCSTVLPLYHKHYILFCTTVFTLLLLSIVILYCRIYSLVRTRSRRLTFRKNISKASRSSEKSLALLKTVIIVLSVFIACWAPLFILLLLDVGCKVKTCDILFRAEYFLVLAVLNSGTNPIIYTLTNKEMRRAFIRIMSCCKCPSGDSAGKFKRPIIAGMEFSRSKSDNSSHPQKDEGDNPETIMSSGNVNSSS
Test: Antagonist activity at human S1P1 receptor expressed in CHO cells assessed as inhibition of S1P-induced [35S]GTPgamma binding
Type: functional, cell-based
Reported Metric: pKi
Value format note: pKi is -log10 of concentration (mol/L); just state the number.

{"Smiles Record": "CCCCCCc1cccc(NC(=O)[C@@H](N)CCP(=O)(O)O)c1", "Test Target": "UniProtKB P21453", "pKi": 5.33}

Exercise: What measured pKi goes with CCCCCCc1cccc(NC(=O)[C@H](N)CCP(=O)(O)O)c1 ?
Key: 7.11
